test: Measurement of LogP values by HPLC on reversed phase columns (EEC directive 79/831 Annex V.A8); type: physicochemical; settings: reversed phase HPLC columns, neutral range, 0.001 molar ammonium acetate solution in water and acetonitrile as eluent, read-out: LogP[b]

# QUERY SMILES, chromatographic logP
records = [
    ("NCC(F)(F)c1ccc(-c2ccc(F)cc2)cc1Cl", 3.1),
]

----------
Entries annotated with measured logP (HCOOH)[a]
assay: Measurement of LogP values by HPLC on reversed phase columns (EEC directive 79/831 Annex V.A8); type: physicochemical; details: acidic range, 0.1% formic acid in water and acetonitrile as eluent
READOUT LABEL: logP (HCOOH)[a]

# QUERY SMILES, READOUT LABEL, RECORDED MEASUREMENT
measured = [
    ("O=C(NCC(F)(F)c1ccc(-c2ccc(OC(F)F)cc2)cc1Cl)c1ccccc1C(F)(F)F", "logP (HCOOH)[a]", 4.03),
    ("N#Cc1ccc(-c2ccc(C(F)(F)CNC(=O)c3ccccc3C(F)(F)F)c(Cl)c2)cc1Cl", "logP (HCOOH)[a]", 4.02),
    ("N#Cc1cc(-c2ccc(C(F)(F)F)cc2)ccc1C(F)(F)CNC(=O)c1ccccc1C(F)(F)F", "logP (HCOOH)[a]", 4.07),
    ("O=C(NCC(F)(F)c1ccc(-c2ccc(F)cc2)cc1Cl)c1ccccc1Br", "logP (HCOOH)[a]", 4.05),
    ("Cc1cc(-c2cccc(F)c2F)ccc1C(F)(F)CNC(=O)c1ccccc1C(F)(F)F", "logP (HCOOH)[a]", 4.1),
    ("Cc1cc(-c2ccc(C(F)F)cc2)ccc1C(F)(F)CNC(=O)c1ccccc1C(F)(F)F", "logP (HCOOH)[a]", 4.06),
    ("O=C(NCC(F)(F)c1ccc(-c2cccc(C(F)F)c2)cc1Cl)c1ccccc1C(F)(F)F", "logP (HCOOH)[a]", 4.03),
    ("O=C(NCC(F)(F)c1ccc(-c2ccc(C(F)F)cc2)cc1Cl)c1ccccc1C(F)(F)F", "logP (HCOOH)[a]", 3.99),
]

----------
Recorded mortality at 20 ppm by entry
tested on: Haemonchus contortus; assay: Haemonchus contortus assay (HAEMCO), larval mortality; type: cell-based; conditions: Haemonchus contortus, 120 h; application rate 20 ppm, after 5 days; read-out: activity (percentage of larval mortality)

# QUERY SMILES, UNITS, mortality at 20 ppm
data = [
    ("O=C(NCC(F)(F)c1ccc(-c2ccc(F)cc2F)cc1Cl)c1ccccc1C(F)(F)F", "%", 100),
    ("O=C(NCC(F)(F)c1ccc(-c2ccc(OC(F)(F)F)cc2)cc1C(F)(F)F)c1ccccc1C(F)(F)F", "%", 90),
    ("COc1cc(-c2ccc(F)cc2)ccc1C(F)(F)CNC(=O)c1ccccc1C(F)(F)F", "%", 90),
    ("O=C(NCC(F)(F)c1ccc(-c2ccccc2)cc1Cl)c1ccccc1C(F)(F)F", "%", 100),
    ("COc1cc(-c2ccc(C(F)(F)CNC(=O)c3ccccc3C(F)(F)F)c(Cl)c2)ccc1F", "%", 100),
    ("O=C(NCC(F)(F)c1ccc(-c2ccc(F)c(C(F)(F)F)c2)cc1Cl)c1ccccc1C(F)(F)F", "%", 90),
    ("O=C(NCC(F)(F)c1ccc(-c2ccc(Cl)cc2)cc1F)c1cccnc1C(F)(F)F", "%", 90),
]
